Run description: gradient 5% acetonitrile 3 min, to 50% in 2 min, to 85% in 15 min, held 3 min, 100 µL/min
Condition description: column: Zorbax Extend-C18 2.1 x 50 mm; eluents: water / acetonitrile, 0.1% formic acid
Recorded RP-LC retention time by entry
Measure: RP-LC retention time (s)

| Record smiles | Test value |
| --- | --- |
| CCc1noc([C@@H]2CC(F)(F)CN2C(=O)c2ccco2)n1 | 755 |
| CCn1c(=O)c(N2CCN(C(=O)Nc3cc(C)ccc3C)CC2)nc2ccccc21 | 984 |
| CCc1nc2cccnc2n1CCN1CCN(C(=O)Nc2cc(C)ccc2C)CC1 | 598 |
| CCOc1ccccc1NC(=O)N1CCN(c2ccc(=O)n(-c3ccc(F)cc3)n2)CC1 | 875 |
| O=C([C@@H]1C[C@H](F)CN1C(=O)Nc1cccc(C(F)(F)F)c1)N1CCCCC1 | 804 |
| O=C(Cn1c2ccccc2n2c(=O)cc(-c3ccncc3)nc12)NC1CCCC1 | 660 |
| CCC(=O)N(C1CCOCC1)C1CCN(S(=O)(=O)c2ccccc2Cl)CC1 | 840 |
| Cc1cc(=O)n(CC(=O)Nc2ccc(F)cc2C)c(N2CCCCC2)n1 | 695 |
| CCn1c(=O)c2c(nc3n2CCCN3C2CCCCC2)n(C)c1=O | 899 |

###

Run description: gradient 5% acetonitrile 3 min, to 50% in 2 min, to 85% in 15 min, held 3 min, 100 µL/min
Condition description: column: Zorbax Extend-C18 2.1 x 50 mm; eluents: water / acetonitrile, 0.1% formic acid

| Record smiles | RP-LC retention time |
| --- | --- |
| COc1ccc(OCc2nc(CCN(C)C(=O)c3cc(OC)cc(OC)c3)no2)cc1 | 810 s |
| Cc1ccc(C)c(CNC(=O)C2CCN(c3cnc4nccnc4c3)CC2)c1 | 722 s |
| Cc1ccccc1Nc1c(-c2cccc(Cl)c2)nc2cnccn12 | 1000 s |
| CC(C)(C)NC(=O)NC1CCN(c2nc3cccnc3n(Cc3ccccc3)c2=O)CC1 | 995 s |
| COc1ccc(-c2nc(Cc3noc(-c4cccc(OC)c4)n3)c(C)o2)cc1 | 1030 s |
| c1nc2ccc(-c3nc(-c4ccc5c(c4)nnn5CCN4CCCCC4)no3)cc2[nH]1 | 570 s |
| Cc1cc(N2CCOCC2)nc(N2CCN(S(=O)(=O)c3cc(C)c(C)cc3C)CC2)n1 | 733 s |
| CNC(=O)CCNc1c(-c2cccc(F)c2)nc2cnccn12 | 606 s |
| CCc1nc2cc3c(cc2n1CC(=O)Nc1ccc(Br)cc1)OCCO3 | 707 s |

###

Run description: gradient 5% acetonitrile 3 min, to 50% in 2 min, to 85% in 15 min, held 3 min, 100 µL/min
Condition description: column: Zorbax Extend-C18 2.1 x 50 mm; eluents: water / acetonitrile, 0.1% formic acid
Overview of recorded RP-LC retention time for various molecules

| Molecule | RP-LC retention time (s) |
| --- | --- |
| CC(C)c1nc(N(C)Cc2ccccc2)ncc1C(=O)O | 1030 |
| COCc1noc([C@@H]2CN(Cc3cccc(OC)n3)C[C@H]2COC)n1 | 612 |
| Cc1cc(C)cc(N2CCC(NC(=O)Nc3cccc(F)c3C)C2=O)c1 (stereo not given) | 938 |
| Cc1noc(-c2nn(C)c3c2CN(C(=O)Nc2ccccc2C(F)(F)F)CC3)n1 | 709 |
| COc1ccc(Nc2nc(-c3nnn(-c4cccc(Cl)c4)c3C)ns2)cc1OC | 963 |
